Value source: patent US20240400614A1

# target.of.assay: uPA (Homo sapiens, UniProt P00749)
# measurement.protocol: FRET peptide cleavage efficiency with uPA
# Assay type: biochemical
# stated.conditions: t = 15 min; standard conditions (Table 8)
Square brackets hold non-standard residues; d marks the D form. Ends that are not written are not given here. Tyr(3-NO2) = N[C@@H](Cc1ccc(O)c([N+](=O)[O-])c1)C(=O)O; Nle = CCCC[C@H](N)C(=O)O; 2Abz = Nc1ccccc1C(=O)O
property.measured: % vcleavage uPA t = 15 min

>>> print(df.to_string())
                                   substance  measured
 0  RGRKSQPLVD ([2Abz]RGRKSQPLVD[Tyr(3-NO2)]-NH2) [LNK041]        0%
 1  SGRVAPYMLQG ([2Abz]SGRVAPYMLQG[Tyr(3-NO2)]-NH2) [LNK042]        2%
 2  RGRKSPANLVG ([2Abz]RGRKSPANLVG[Tyr(3-NO2)]-NH2) [LNK034]        0%
 3  RGRKSPQPLVD ([2Abz]RGRKSPQPLVD[Tyr(3-NO2)]-NH2) [LNK040]        0%
 4  RGRKVANLVG ([2Abz]RGRKVANLVG[Tyr(3-NO2)]-NH2) [LNK031]        1%
 5  RGRKPQPLVD ([2Abz]RGRKPQPLVD[Tyr(3-NO2)]-NH2) [LNK039]        0%
 6  RGRRGP ([2Abz]RGRRGP[Tyr(3-NO2)]-NH2) [LNK048]        0%
 7  RGRKPYMLQG ([2Abz]RGRKPYMLQG[Tyr(3-NO2)]-NH2) [LNK035]        0%
 8  SGRVYMLQG ([2Abz]SGRVYMLQG[Tyr(3-NO2)]-NH2) [LNK044]        0%
 9  SGRVAPY-Nle-LQG ([2Abz]SGRVAPY[Nle]LQG[Tyr(3-NO2)]-NH2) [LNK043]        0%
10  RQRKVANLVG ([2Abz]RQRKVANLVG[Tyr(3-NO2)]-NH2) [LNK032]        0%
11  RGRKSPYMLQG ([2Abz]RGRKSPYMLQG[Tyr(3-NO2)]-NH2) [LNK037]        0%
12  SGRVAPQPLVD (not fully specified (N-terminus, C-terminus)) [LNK046]        1%
13  RGRKPY-Nle-LQG ([2Abz]RGRKPY[Nle]LQG[Tyr(3-NO2)]-NH2) [LNK036]        0%
14  RGRRVANLVG ([2Abz]RGRRVANLVG[Tyr(3-NO2)]-NH2) [LNK033]        1%
15  RGRKSPY-Nle-LQG ([2Abz]RGRKSPY[Nle]LQG[Tyr(3-NO2)]-NH2) [LNK038]        0%
16  SGRVQPLVD (not fully specified (N-terminus, C-terminus)) [LNK047]        1%

----------
Some substances, each annotated with its measured % cleavage MMP-9 t = 60 min.
# target.of.assay: MMP-9 (Homo sapiens, UniProt P14780)
# Construct: purchased SIGMA PF024
# Sequence (P14780 94-707): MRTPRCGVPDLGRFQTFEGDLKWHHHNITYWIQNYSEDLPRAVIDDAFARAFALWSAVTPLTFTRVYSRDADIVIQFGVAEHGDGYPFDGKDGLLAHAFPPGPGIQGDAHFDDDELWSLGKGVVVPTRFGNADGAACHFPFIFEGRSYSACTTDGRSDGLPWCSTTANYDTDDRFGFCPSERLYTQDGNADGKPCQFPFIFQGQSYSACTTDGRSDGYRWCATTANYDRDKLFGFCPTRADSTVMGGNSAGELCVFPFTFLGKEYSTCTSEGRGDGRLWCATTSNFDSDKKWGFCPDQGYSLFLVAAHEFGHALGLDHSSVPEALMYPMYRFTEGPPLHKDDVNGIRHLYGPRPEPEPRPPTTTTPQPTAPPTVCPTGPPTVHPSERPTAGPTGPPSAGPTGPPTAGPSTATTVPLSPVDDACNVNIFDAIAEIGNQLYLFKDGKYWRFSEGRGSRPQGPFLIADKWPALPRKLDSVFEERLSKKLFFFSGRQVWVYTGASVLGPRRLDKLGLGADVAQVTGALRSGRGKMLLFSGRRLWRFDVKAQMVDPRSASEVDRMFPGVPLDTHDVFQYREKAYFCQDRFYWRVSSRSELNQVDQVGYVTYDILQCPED
# measurement.protocol: FRET peptide cleavage efficiency with MMP-9 (standard pH 7.5; also pH 6.5)
# Assay type: biochemical
# stated.conditions: t = 60 min (Table 9)
Square brackets hold non-standard residues; d marks the D form. Ends that are not written are not given here. Tyr(3-NO2) = N[C@@H](Cc1ccc(O)c([N+](=O)[O-])c1)C(=O)O; Nle = CCCC[C@H](N)C(=O)O; 2Abz = Nc1ccccc1C(=O)O
property.measured: % cleavage MMP-9 t = 60 min

>>> print(df.to_string())
                                  substance  measured
0  RGRRVANPLGYFGKL ([2Abz]RGRRVANPLGYFGKL[Tyr(3-NO2)]-NH2) [LNK058]       97%
1  RGRRPLGLAG ([2Abz]RGRRPLGLAG[Tyr(3-NO2)]-NH2) [LNK049]      100%
2  SGRVAPY-Nle-LQG ([2Abz]SGRVAPY[Nle]LQG[Tyr(3-NO2)]-NH2) [LNK043]       93%
3  RGRKPYMLQG ([2Abz]RGRKPYMLQG[Tyr(3-NO2)]-NH2) [LNK035]      100%

----------
# target.of.assay: matriptase (Homo sapiens, UniProt Q9Y5Y6)
# Construct: purchased R&D Systems 3946-SEB
# Sequence (Q9Y5Y6 615-855 limits assumed): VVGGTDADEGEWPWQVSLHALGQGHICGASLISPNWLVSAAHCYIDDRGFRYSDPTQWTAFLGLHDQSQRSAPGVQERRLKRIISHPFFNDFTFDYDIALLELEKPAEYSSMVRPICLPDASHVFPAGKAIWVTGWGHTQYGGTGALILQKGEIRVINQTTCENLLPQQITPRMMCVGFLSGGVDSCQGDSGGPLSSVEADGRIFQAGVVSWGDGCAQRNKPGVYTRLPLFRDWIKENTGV
# measurement.protocol: FRET peptide cleavage efficiency with matriptase
# Format: biochemical
# stated.conditions: pH 7.5; t = 15 min (Table 7)
Square brackets hold non-standard residues; d marks the D form. Ends that are not written are not given here. Tyr(3-NO2) = N[C@@H](Cc1ccc(O)c([N+](=O)[O-])c1)C(=O)O; 2Abz = Nc1ccccc1C(=O)O
property.measured: % cleavage Matriptase t = 15 min (%)

In [3]: df
Out[3]:
                     macromolecule_sequence                 property_measured  unit_of_measurement  measured
0  SGRVAGLVG ([2Abz]SGRVAGLVG[Tyr(3-NO2)]-NH2) [LNK016]  % cleavage Matriptase t = 15 min                    %        17
1  SGRVANLVG (not fully specified (N-terminus, C-terminus)) [LNK017]  % cleavage Matriptase t = 15 min                    %        25
2  SGRVLRKAGPQPLVD ([2Abz]SGRVLRKAGPQPLVD[Tyr(3-NO2)]-NH2) [LNK003]  % cleavage Matriptase t = 15 min                    %        98
3  SGRVLRKAGPANLVG ([2Abz]SGRVLRKAGPANLVG[Tyr(3-NO2)]-NH2) [LNK014]  % cleavage Matriptase t = 15 min                    %       100
4  RQRRSPLGLAG ([2Abz]RQRRSPLGLAG[Tyr(3-NO2)]-NH2) [LNK010]  % cleavage Matriptase t = 15 min                    %       100
5  SSRGRRGPYMLQG ([2Abz]SSRGRRGPYMLQG[Tyr(3-NO2)]-NH2) [LNK021]  % cleavage Matriptase t = 15 min                    %       100
6  SSRGPYMLQG ([2Abz]SSRGPYMLQG[Tyr(3-NO2)]-NH2) [LNK022]  % cleavage Matriptase t = 15 min                    %         0

----------
# target.of.assay: MMP-7 (Homo sapiens)
# Construct: purchased SIGMA CC1059
# Sequence (P09237 95-267): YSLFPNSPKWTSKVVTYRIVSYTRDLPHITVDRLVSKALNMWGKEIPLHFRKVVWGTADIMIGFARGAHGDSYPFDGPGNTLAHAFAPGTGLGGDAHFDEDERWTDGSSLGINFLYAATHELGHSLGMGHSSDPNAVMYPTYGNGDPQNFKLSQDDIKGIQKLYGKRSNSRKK
# measurement.protocol: FRET peptide cleavage efficiency with MMP-7 (standard pH 7.5; also pH 6.5)
# Format: biochemical
# stated.conditions: t = 60 min; standard conditions (Table 8)
Square brackets hold non-standard residues; d marks the D form. Ends that are not written are not given here. Tyr(3-NO2) = N[C@@H](Cc1ccc(O)c([N+](=O)[O-])c1)C(=O)O; Nle = CCCC[C@H](N)C(=O)O; 2Abz = Nc1ccccc1C(=O)O
property.measured: % cleavage MMP-7 t = 60 min (%)

In [3]: df
Out[3]:
                                  substance            property_measured  measured
0  RGRKSQPLVD ([2Abz]RGRKSQPLVD[Tyr(3-NO2)]-NH2) [LNK041]  % cleavage MMP-7 t = 60 min         4
1  RGRRGP ([2Abz]RGRRGP[Tyr(3-NO2)]-NH2) [LNK048]  % cleavage MMP-7 t = 60 min         0
2  RGRKSPQPLVD ([2Abz]RGRKSPQPLVD[Tyr(3-NO2)]-NH2) [LNK040]  % cleavage MMP-7 t = 60 min        74
3  RGRKSPY-Nle-LQG ([2Abz]RGRKSPY[Nle]LQG[Tyr(3-NO2)]-NH2) [LNK038]  % cleavage MMP-7 t = 60 min        69
4  RQRKVANLVG ([2Abz]RQRKVANLVG[Tyr(3-NO2)]-NH2) [LNK032]  % cleavage MMP-7 t = 60 min        72
5  SGRVAPQPLVD (not fully specified (N-terminus, C-terminus)) [LNK046]  % cleavage MMP-7 t = 60 min       100
6  SGRVAPY-Nle-LQG ([2Abz]SGRVAPY[Nle]LQG[Tyr(3-NO2)]-NH2) [LNK043]  % cleavage MMP-7 t = 60 min       100
7  RGRKSPANLVG ([2Abz]RGRKSPANLVG[Tyr(3-NO2)]-NH2) [LNK034]  % cleavage MMP-7 t = 60 min        89
8  SGRVYMLQG ([2Abz]SGRVYMLQG[Tyr(3-NO2)]-NH2) [LNK044]  % cleavage MMP-7 t = 60 min         4
